B1: NR2F2 (parent)
chain: NIPFFPDLQITDQVALLRLTWSEL

variants of: B1; test: protein stability index of a GFP-peptide fusion (GPS, HEK-293T) (PSI 1-6); higher = more stable; details: c terminus: a fixed tail appended;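 note: lentivirally expressed fusions sorted by FACS into six bins by GFP to DsRed ratio, PSI derived from sequencing read proportions per bin multiplied by bin number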
Reported values of protein stability index for individual entries
Reply with just the number.

D7G	3.35
W21T	1.79
T11W	3.19

Query: I would be grateful if you could share the reported protein stability index for "F5M" .
Reply: 1.78

Query: Next record, please: "T20G"
Reply: 2.23

Query: Next record, please: "L24C"
Reply: 2.62

Query: Next record, please: "P6F"
Reply: 3.43

Query: Next record, please: "L17D"
Reply: 2.08

Query: Next record, please: "D7L"
Reply: 2.88

Query: Next record, please: "T11G"
Reply: 2.28

Query: Next record, please: "F4T"
Reply: 2.03
